These measurements were taken from patent US20160115500A1.

Each item that follows carries a reported Threshold.
- tested.system: T1, GAL4 activation domain fusion (ACT) to HAB1 (UniProt Q9CAJ0 23-511, limits assumed)
- T1 construct: pACT-HAB1 fusion in yeast reporter strains; also called pACT-HAB1
- T1 sequence (looked up): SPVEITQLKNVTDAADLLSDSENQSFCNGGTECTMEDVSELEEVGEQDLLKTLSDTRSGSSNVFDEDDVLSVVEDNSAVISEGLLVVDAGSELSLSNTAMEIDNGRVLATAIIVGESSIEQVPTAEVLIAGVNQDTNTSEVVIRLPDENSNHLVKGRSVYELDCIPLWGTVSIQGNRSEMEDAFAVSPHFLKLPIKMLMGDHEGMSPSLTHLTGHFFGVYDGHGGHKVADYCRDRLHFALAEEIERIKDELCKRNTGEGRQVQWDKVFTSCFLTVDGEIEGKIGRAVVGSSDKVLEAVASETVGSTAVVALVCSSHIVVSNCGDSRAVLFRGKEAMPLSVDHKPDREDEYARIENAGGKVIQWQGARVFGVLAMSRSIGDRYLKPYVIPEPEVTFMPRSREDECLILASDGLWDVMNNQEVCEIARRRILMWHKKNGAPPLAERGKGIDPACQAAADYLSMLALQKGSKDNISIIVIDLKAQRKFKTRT
- protocol.description: yeast two-hybrid, X-gal; lowest mandipropamid concentration giving signal
# value in µM; strip the unit string

binder	Threshold / µM
PYR1^K59R,A89W (receptor, pBD-PYR1 fusion in yeast) MPSELTPEERSELKNSIAEFHTYQLDPGSCSSLHAQRIHAPPELVWSIVRRFDKPQTYRHFIKSCSVEQNFEMRVGCTRDVIVISGLPWNTSTERLDILDDERRVTGFSIIGGEHRLTNYKSVTTVHRFEKENRIWTVVLESYVVDMPEGNSEDDTRMFADTVVKLNLQKLATVAEAMARNSGDGSGSQVT	100
PYR1^K59R,F108S (receptor, pBD-PYR1 fusion in yeast) MPSELTPEERSELKNSIAEFHTYQLDPGSCSSLHAQRIHAPPELVWSIVRRFDKPQTYRHFIKSCSVEQNFEMRVGCTRDVIVISGLPANTSTERLDILDDERRVTGSSIIGGEHRLTNYKSVTTVHRFEKENRIWTVVLESYVVDMPEGNSEDDTRMFADTVVKLNLQKLATVAEAMARNSGDGSGSQVT	100
PYR1^K59R,F159V (receptor, not shown: small tags and cut ends, pBD-PYR1 fusion in yeast) MPSELTPEERSELKNSIAEFHTYQLDPGSCSSLHAQRIHAPPELVWSIVRRFDKPQTYRHFIKSCSVEQNFEMRVGCTRDVIVISGLPANTSTERLDILDDERRVTGFSIIGGEHRLTNYKSVTTVHRFEKENRIWTVVLESYVVDMPEGNSEDDTRMVADTVVKLNLQKLATVAEAMARNSGDGSGSQVT	100
PYR1^K59R,F108A,S122G,F159L (receptor, pBD-PYR1 fusion in yeast) MPSELTPEERSELKNSIAEFHTYQLDPGSCSSLHAQRIHAPPELVWSIVRRFDKPQTYRHFIKSCSVEQNFEMRVGCTRDVIVISGLPANTSTERLDILDDERRVTGASIIGGEHRLTNYKGVTTVHRFEKENRIWTVVLESYVVDMPEGNSEDDTRMLADTVVKLNLQKLATVAEAMARNSGDGSGSQVT	0.05
PYR1^K59R,F108C (receptor, not shown: small tags and cut ends, pBD-PYR1 fusion in yeast) MPSELTPEERSELKNSIAEFHTYQLDPGSCSSLHAQRIHAPPELVWSIVRRFDKPQTYRHFIKSCSVEQNFEMRVGCTRDVIVISGLPANTSTERLDILDDERRVTGCSIIGGEHRLTNYKSVTTVHRFEKENRIWTVVLESYVVDMPEGNSEDDTRMFADTVVKLNLQKLATVAEAMARNSGDGSGSQVT	100

Now examine the next entry.
Task: // lookup Threshold for PYR1^K59R,F108A,S122G,V164I (receptor, pBD-PYR1 fusion in yeast) MPSELTPEERSELKNSIAEFHTYQLDPGSCSSLHAQRIHAPPELVWSIVRRFDKPQTYRHFIKSCSVEQNFEMRVGCTRDVIVISGLPANTSTERLDILDDERRVTGASIIGGEHRLTNYKGVTTVHRFEKENRIWTVVLESYVVDMPEGNSEDDTRMFADTVIKLNLQKLATVAEAMARNSGDGSGSQVT
Result: 0.25
